Attribute: Emax
molecular target: glucocorticoid receptor (Homo sapiens); construct: A549 cells stably transfected with a reporter gene; endogenous in cells; host or cells: A549 cells; assay: Assay for transactivation activity of the glucocorticoid agonists (MMTV-LTR renilla luciferase reporter in A549 cells); assay type: cell-based; conditions: compound 6 hour at 37° C., read-out: maximal response relative to Dexamethasone (100%) (transactivation)
Sequence (P04150 whole entry): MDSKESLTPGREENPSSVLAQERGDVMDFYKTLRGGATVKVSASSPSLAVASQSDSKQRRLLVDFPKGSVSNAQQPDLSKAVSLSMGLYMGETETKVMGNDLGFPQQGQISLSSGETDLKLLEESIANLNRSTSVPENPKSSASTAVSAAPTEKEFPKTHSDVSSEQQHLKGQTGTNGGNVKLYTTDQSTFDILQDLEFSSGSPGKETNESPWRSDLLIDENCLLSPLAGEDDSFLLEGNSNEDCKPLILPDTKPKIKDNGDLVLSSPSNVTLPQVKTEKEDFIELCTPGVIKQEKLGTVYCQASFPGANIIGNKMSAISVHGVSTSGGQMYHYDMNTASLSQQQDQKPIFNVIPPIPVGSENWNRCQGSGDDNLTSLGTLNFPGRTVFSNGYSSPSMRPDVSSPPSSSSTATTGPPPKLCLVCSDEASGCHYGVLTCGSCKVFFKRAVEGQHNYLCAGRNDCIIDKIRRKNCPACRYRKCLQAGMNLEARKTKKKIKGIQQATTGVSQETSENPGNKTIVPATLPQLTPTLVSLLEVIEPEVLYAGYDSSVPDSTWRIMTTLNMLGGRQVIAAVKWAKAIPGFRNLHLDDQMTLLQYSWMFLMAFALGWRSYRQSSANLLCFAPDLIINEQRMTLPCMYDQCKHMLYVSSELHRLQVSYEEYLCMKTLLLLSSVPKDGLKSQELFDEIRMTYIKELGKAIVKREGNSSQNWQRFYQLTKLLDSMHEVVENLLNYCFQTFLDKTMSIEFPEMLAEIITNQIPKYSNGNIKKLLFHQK
ATTRIBUTE_MEASURED: Emax

- COMPOUND: "C[C@@H]1C[C@H]2[C@@H]3C[C@H](F)C4=CC(=O)C=C[C@]4(C)[C@@]3(F)[C@@H](O)C[C@]2(C)[C@@]1(OC(=O)O[C@@H]1C[C@@H]2CC[C@@]1(C)C2(C)C)C(=O)OCF [Example 27]"
  TGT: "glucocorticoid receptor (Homo sapiens)"
  READOUT_VALUE: "< 25%"
- COMPOUND: "C[C@@H]1C[C@H]2[C@@H]3C[C@H](F)C4=CC(=O)C=C[C@]4(C)[C@@]3(F)[C@@H](O)C[C@]2(C)[C@@]1(OC(=O)OCC1CCCC1)C(=O)OCF [Example 15]"
  TGT: "glucocorticoid receptor (Homo sapiens)"
  READOUT_VALUE: "< 25%"
- COMPOUND: "CCC(OC(=O)O[C@]1(C(=O)OCF)[C@H](C)C[C@H]2[C@@H]3C[C@H](F)C4=CC(=O)C=C[C@]4(C)[C@@]3(F)[C@@H](O)C[C@@]21C)C(C)(C)C (stereo partly shown) [Example 38]"
  TGT: "glucocorticoid receptor (Homo sapiens)"
  READOUT_VALUE: "< 25%"
- COMPOUND: "C[C@@H]1[C@H]2C[C@@H](C[C@H]1OC(=O)O[C@]1(C(=O)OCF)[C@H](C)C[C@H]3[C@@H]4C[C@H](F)C5=CC(=O)C=C[C@]5(C)[C@@]4(F)[C@@H](O)C[C@@]31C)C2(C)C [Example 34]"
  TGT: "glucocorticoid receptor (Homo sapiens)"
  READOUT_VALUE: "< 25%"
- COMPOUND: "CC(OC(=O)O[C@]1(C(=O)OCF)[C@H](C)C[C@H]2[C@@H]3C[C@H](F)C4=CC(=O)C=C[C@]4(C)[C@@]3(F)[C@@H](O)C[C@@]21C)C(C)(C)C (stereo partly shown) [Example 23]"
  TGT: "glucocorticoid receptor (Homo sapiens)"
  READOUT_VALUE: "< 25%"
- COMPOUND: "CC(C)[C@H]1CC[C@H](C)C[C@@H]1OC(=O)O[C@]1(C(=O)OCF)[C@H](C)C[C@H]2[C@@H]3C[C@H](F)C4=CC(=O)C=C[C@]4(C)[C@@]3(F)[C@@H](O)C[C@@]21C [Example 32]"
  TGT: "glucocorticoid receptor (Homo sapiens)"
  READOUT_VALUE: "< 25%"
- COMPOUND: "C[C@@H]1C[C@H]2[C@@H]3C[C@H](F)C4=CC(=O)C=C[C@]4(C)[C@@]3(F)[C@@H](O)C[C@]2(C)[C@@]1(OC(=O)OC1CCCC1)C(=O)OCF [Example 31]"
  TGT: "glucocorticoid receptor (Homo sapiens)"
  READOUT_VALUE: "< 25%"
- COMPOUND: "C[C@@H]1C[C@H]2[C@@H]3C[C@H](F)C4=CC(=O)C=C[C@]4(C)[C@@]3(F)[C@@H](O)C[C@]2(C)[C@@]1(OC(=O)O[C@H]1C[C@H]2CC[C@]1(C)C2(C)C)C(=O)OCF [Example 28]"
  TGT: "glucocorticoid receptor (Homo sapiens)"
  READOUT_VALUE: "< 25%"
- COMPOUND: "C[C@@H]1C[C@H]2[C@@H]3C[C@H](F)C4=CC(=O)C=C[C@]4(C)[C@@]3(F)[C@@H](O)C[C@]2(C)[C@@]1(OC(=O)O[C@H]1C(C)(C)[C@H]2CC[C@]1(C)C2)C(=O)OCF [Example 33]"
  TGT: "glucocorticoid receptor (Homo sapiens)"
  READOUT_VALUE: "< 25%"
- COMPOUND: "CC1CC2C3CC(F)C4=CC(=O)C=CC4(C)C3(F)C(O)CC2(C)C1(OC(=O)OC1CC2CCC1C2)C(=O)OCF (stereo not shown) [Example 12]"
  TGT: "glucocorticoid receptor (Homo sapiens)"
  READOUT_VALUE: "< 25%"
- COMPOUND: "CCC(OC(=O)O[C@]1(C(=O)OCF)[C@H](C)C[C@H]2[C@@H]3C[C@H](F)C4=CC(=O)C=C[C@]4(C)[C@@]3(F)[C@@H](O)C[C@@]21C)C1CCCC1 (stereo partly shown) [Example 20]"
  TGT: "glucocorticoid receptor (Homo sapiens)"
  READOUT_VALUE: "< 25%"
- COMPOUND: "COC1CCCCC1OC(=O)OC1(C(=O)OCF)C(C)CC2C3CC(F)C4=CC(=O)C=CC4(C)C3(F)C(O)CC21C (stereo not shown) [Example 18]"
  TGT: "glucocorticoid receptor (Homo sapiens)"
  READOUT_VALUE: "< 25%"
- COMPOUND: "CC(C)C(C)OC(=O)O[C@]1(C(=O)OCF)[C@H](C)C[C@H]2[C@@H]3C[C@H](F)C4=CC(=O)C=C[C@]4(C)[C@@]3(F)[C@@H](O)C[C@@]21C (stereo partly shown) [Example 9]"
  TGT: "glucocorticoid receptor (Homo sapiens)"
  READOUT_VALUE: "< 25%"
- COMPOUND: "CCC(OC(=O)O[C@]1(C(=O)OCF)[C@H](C)C[C@H]2[C@@H]3C[C@H](F)C4=CC(=O)C=C[C@]4(C)[C@@]3(F)[C@@H](O)C[C@@]21C)C(C)C (stereo partly shown) [Example 8]"
  TGT: "glucocorticoid receptor (Homo sapiens)"
  READOUT_VALUE: "< 25%"
- COMPOUND: "CC[C@H]1CC[C@H](OC(=O)O[C@]2(C(=O)OCF)[C@H](C)C[C@H]3[C@@H]4C[C@H](F)C5=CC(=O)C=C[C@]5(C)[C@@]4(F)[C@@H](O)C[C@@]32C)CC1 (relative stereo) [Example 37]"
  TGT: "glucocorticoid receptor (Homo sapiens)"
  READOUT_VALUE: "< 25%"
- COMPOUND: "CC1CCCCC1OC(=O)OC1(C(=O)OCF)C(C)CC2C3CC(F)C4=CC(=O)C=CC4(C)C3(F)C(O)CC21C (stereo not shown) [Example 10]"
  TGT: "glucocorticoid receptor (Homo sapiens)"
  READOUT_VALUE: "< 25%"
- COMPOUND: "C[C@@H]1C[C@H]2[C@@H]3C[C@H](F)C4=CC(=O)C=C[C@]4(C)[C@@]3(F)[C@@H](O)C[C@]2(C)[C@@]1(OC(=O)OC(C)(C)C)C(=O)OCF [Example 1]"
  TGT: "glucocorticoid receptor (Homo sapiens)"
  READOUT_VALUE: "< 25%"
- COMPOUND: "C[C@@H]1C[C@H]2[C@@H]3C[C@H](F)C4=CC(=O)C=C[C@]4(C)[C@@]3(F)[C@@H](O)C[C@]2(C)[C@@]1(OC(=O)OC1C(C)(C)C1(C)C)C(=O)OCF [Example 26]"
  TGT: "glucocorticoid receptor (Homo sapiens)"
  READOUT_VALUE: "< 25%"
- COMPOUND: "CCC(CC)COC(=O)O[C@]1(C(=O)OCF)[C@H](C)C[C@H]2[C@@H]3C[C@H](F)C4=CC(=O)C=C[C@]4(C)[C@@]3(F)[C@@H](O)C[C@@]21C [Example 6]"
  TGT: "glucocorticoid receptor (Homo sapiens)"
  READOUT_VALUE: "< 25%"
